# System: Escherichia coli
# testSummary: Antimicrobial activity against Escherichia coli ATCC 25922 after 18 hrs by microdilution method
# Assay type: functional
# cond: ATCC 25922, 18 h
Entries and their MIC

Solved cases (7 shown):
| molecule | MIC |
| --- | --- |
| N[C@@H]1C[C@H](N)[C@@H](O)[C@H](OCc2cn(CCO)nn2)[C@H]1OCC(=O)N1CCCCC1 | > 1000 µg/mL |
| N[C@@H]1C[C@H](NC(=O)NCCO)[C@@H](O)[C@H](OCC(=O)N2CCOCC2)[C@H]1OCc1cn(CCO)nn1 | 235 µg/mL |
| NCC[C@H](O)C(=O)N[C@H]1C[C@@H](n2cc(CO)nn2)[C@H](O)[C@@H](O)[C@@H]1O | > 1000 µg/mL |
| N[C@H]1C[C@@H]2[C@H](OCc3cnnn32)[C@@H](O)[C@@H]1O (single isomer, unassigned) | 283 µg/mL |
| NCCCC(=O)N[C@H]1C[C@@H]2[C@H](OCc3cnnn32)[C@@H](O)[C@@H]1O | > 870 µg/mL |
| N[C@H]1C[C@@H](n2cc(CO)nn2)[C@H](O)[C@@H](O)[C@@H]1O | > 700 µg/mL |
| NCC[C@H](O)C(=O)N[C@H]1C[C@@H]2[C@H](OCc3cnnn32)[C@@H](O)[C@@H]1O | > 820 µg/mL |

As a next step, examine the molecule that follows.
*Q* Request the reported MIC associated with NCC[C@H](O)C(=O)N[C@H]1C[C@@H](N)[C@H](O)[C@@H](O)[C@@H]1O
*A* > 840 µg/mL

---

# testSummary: Binding affinity to 2AP-labeled duplex RNA oligonucleotide ribosomal decoding site (unknown origin) by fluorescence spectrophotometry
# cond: read-out: EC50
readoutLabel: EC50 (µM)

Worked examples follow.
| compound | EC50 [µM] |
| --- | --- |
| NCC[C@H](O)C(=O)N[C@H]1C[C@@H](N)[C@H](O)[C@@H](O)[C@@H]1O | 8.7 |
| N[C@@H]1C[C@H](N)[C@@H](O)[C@H](OCc2cn(CCO)nn2)[C@H]1OCC(=O)N1CCCCC1 | 3 |
| N[C@@H]1C[C@H](NC(=O)NCCO)[C@@H](O)[C@H](OCC(=O)N2CCOCC2)[C@H]1OCc1cn(CCO)nn1 | 62 |

(1) N[C@H]1C[C@@H]2[C@H](OCc3cnnn32)[C@@H](O)[C@@H]1O (single isomer, unassigned)
(2) NCCCC(=O)N[C@H]1C[C@@H]2[C@H](OCc3cnnn32)[C@@H](O)[C@@H]1O
(3) NCC[C@H](O)C(=O)N[C@H]1C[C@@H]2[C@H](OCc3cnnn32)[C@@H](O)[C@@H]1O
*Q* Sequence the entries by EC50, beginning with the highest number. Your answer should be the labels, listed in the requested order.
*A* 1, 2, 3

---

# Tested on: Staphylococcus aureus
# testSummary: Antimicrobial activity against Staphylococcus aureus ATCC 29213 after 18 hrs by microdilution method
# Type: functional
# cond: ATCC 29213, 18 h
readoutLabel: MIC (µg/mL)

| structureNotation | valueUnits | MIC |
| --- | --- | --- |
| NCC[C@H](O)C(=O)N[C@H]1C[C@@H]2[C@H](OCc3cnnn32)[C@@H](O)[C@@H]1O | µg/mL | 102 |
| N[C@@H]1C[C@H](N)[C@@H](O)[C@H](OCc2cn(CCO)nn2)[C@H]1OCC(=O)N1CCCCC1 | µg/mL | 129 |
| NCC[C@H](O)C(=O)N[C@H]1C[C@@H](n2cc(CO)nn2)[C@H](O)[C@@H](O)[C@@H]1O | µg/mL | 60 |
| NCCCC(=O)N[C@H]1C[C@@H]2[C@H](OCc3cnnn32)[C@@H](O)[C@@H]1O | µg/mL | 109 |
| N[C@@H]1C[C@H](NC(=O)NCCO)[C@@H](O)[C@H](OCC(=O)N2CCOCC2)[C@H]1OCc1cn(CCO)nn1 | µg/mL | 78 |

(I) N[C@H]1C[C@@H](n2cc(CO)nn2)[C@H](O)[C@@H](O)[C@@H]1O
(II) NCC[C@H](O)C(=O)N[C@H]1C[C@@H](N)[C@H](O)[C@@H](O)[C@@H]1O
*Q* Consider I and II . Which of these has its MIC at a higher number? Answer by stating the label of the chosen item.
*A* I
(I: 88 µg/mL, II: 52.5 µg/mL)

Source listed as ChEMBL document CHEMBL3112542.
